B1: PHTF1 (parent)
chain: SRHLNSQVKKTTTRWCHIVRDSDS

# Variants of: B1
# Protocol Description: protein stability index of a GFP-peptide fusion (GPS, HEK-293T) (PSI 1-6); higher = more stable;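 note: lentivirally expressed fusions sorted by FACS into six bins by GFP to DsRed ratio, PSI derived from sequencing read proportions per bin multiplied by bin number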
# Condition Info: c terminus: a fixed tail appended
We use 2 as the dividing line for protein stability index: on or above the line is 1, below is -1.

Kindly determine if protein stability index recorded for "R2T" is above or exactly 2.
1

Kindly determine if protein stability index recorded for "C16A" is above or exactly 2.
-1

Kindly determine if protein stability index recorded for "T13A" is above or exactly 2.
1

Kindly determine if protein stability index recorded for "S6C" is above or exactly 2.
-1

Kindly determine if protein stability index recorded for "C16Y" is above or exactly 2.
1

Kindly determine if protein stability index recorded for "W15M" is above or exactly 2.
1

Kindly determine if protein stability index recorded for "K10Y" is above or exactly 2.
-1

Kindly determine if protein stability index recorded for "S1C" is above or exactly 2.
1

Kindly determine if protein stability index recorded for "K9N" is above or exactly 2.
1

Kindly determine if protein stability index recorded for "W15A" is above or exactly 2.
1

Kindly determine if protein stability index recorded for "H3M" is above or exactly 2.
1

Kindly determine if protein stability index recorded for "H17P" is above or exactly 2.
1

Kindly determine if protein stability index recorded for "V19E" is above or exactly 2.
1

Kindly determine if protein stability index recorded for "R2A" is above or exactly 2.
1

Kindly determine if protein stability index recorded for "R14Q" is above or exactly 2.
1

Kindly determine if protein stability index recorded for "D21L" is above or exactly 2.
1

Kindly determine if protein stability index recorded for "Q7H" is above or exactly 2.
1

Kindly determine if protein stability index recorded for "R2M" is above or exactly 2.
1

Kindly determine if protein stability index recorded for "I18F" is above or exactly 2.
1

Kindly determine if protein stability index recorded for "Q7A" is above or exactly 2.
1

Kindly determine if protein stability index recorded for "R14M" is above or exactly 2.
-1

Kindly determine if protein stability index recorded for "V19M" is above or exactly 2.
1

Kindly determine if protein stability index recorded for "T13F" is above or exactly 2.
-1

Kindly determine if protein stability index recorded for "I18R" is above or exactly 2.
1

Kindly determine if protein stability index recorded for "S1W" is above or exactly 2.
1

Kindly determine if protein stability index recorded for "S1N" is above or exactly 2.
1

Kindly determine if protein stability index recorded for "K10C" is above or exactly 2.
1

Kindly determine if protein stability index recorded for "W15F" is above or exactly 2.
1

Kindly determine if protein stability index recorded for "R14G" is above or exactly 2.
1

Kindly determine if protein stability index recorded for "D21H" is above or exactly 2.
-1

Kindly determine if protein stability index recorded for "N5P" is above or exactly 2.
1

Kindly determine if protein stability index recorded for "S1Y" is above or exactly 2.
1

Kindly determine if protein stability index recorded for "R2V" is above or exactly 2.
-1

Kindly determine if protein stability index recorded for "R2P" is above or exactly 2.
-1

Kindly determine if protein stability index recorded for "S22K" is above or exactly 2.
1

Kindly determine if protein stability index recorded for "S22C" is above or exactly 2.
-1

Kindly determine if protein stability index recorded for "S24W" is above or exactly 2.
-1

Kindly determine if protein stability index recorded for "S22F" is above or exactly 2.
-1

Kindly determine if protein stability index recorded for "S24I" is above or exactly 2.
-1

Kindly determine if protein stability index recorded for "R14A" is above or exactly 2.
1

Kindly determine if protein stability index recorded for "C16P" is above or exactly 2.
1

Kindly determine if protein stability index recorded for "T13C" is above or exactly 2.
1

Kindly determine if protein stability index recorded for "S6K" is above or exactly 2.
1

Kindly determine if protein stability index recorded for "I18P" is above or exactly 2.
1

Kindly determine if protein stability index recorded for "H17G" is above or exactly 2.
1

Kindly determine if protein stability index recorded for "S1K" is above or exactly 2.
1
